Test system: S. maltophila 748
Assay details: Antibiotic MIC by microdilution with or without sub-MIC polymer
Type: cell-based, Stenotrophomonas maltophila
Condition set: +¼ MIC (1.6 μM) C12K(KNC12K)3NH2
Experimental readout: Antibiotic MIC (µg/mL)
Answers are plain numbers, in µg/mL.

INSERT INTO results (structure_smiles_string, reported_value) VALUES
  ('CN(C)[C@@H]1C(O)=C(C(N)=O)C(=O)[C@@]2(O)C(O)=C3C(=O)c4c(O)cccc4[C@@](C)(O)[C@H]3C[C@@H]12', 64);

List the reported Antibiotic MIC of each compound below.
1. CCN1CCN(C(=O)N[C@@H](C(=O)N[C@@H]2C(=O)N3[C@@H]2SC(C)(C)[C@@H]3C(=O)O)c2ccccc2)C(=O)C1=O
2. CC[C@H]1OC(=O)[C@H](C)[C@@H](O[C@H]2C[C@@](C)(OC)[C@@H](O)[C@H](C)O2)[C@H](C)[C@@H](O[C@@H]2O[C@H](C)C[C@H](N(C)C)[C@H]2O)[C@](C)(O)C[C@@H](C)C(=O)[C@H](C)[C@@H](O)[C@]1(C)O

Out:
[32, 512]

List the reported Antibiotic MIC of each compound below.
1. O=C(O)c1cn(C2CC2)c2cc(N3CCNCC3)c(F)cc2c1=O
2. Cc1onc(-c2ccccc2)c1C(=O)N[C@@H]1C(=O)N2[C@@H]1SC(C)(C)[C@@H]2C(=O)O
3. CC1(C)S[C@@H]2[C@H](NC(=O)Cc3ccccc3)C(=O)N2[C@H]1C(=O)O

Out:
1: 8; 2: 512; 3: 512

====

Tested on: S. aureus 15877
Assay details: Antibiotic MIC by microdilution with or without sub-MIC polymer
Assay type: cell-based, Staphylococcus aureus
Condition set: +⅓ MIC (2.1 μM) C12(5-ene)KKNC12KNH2
Experimental readout: Antibiotic MIC (µg/mL)
One number for each entry, in µg/mL.

INSERT INTO results (structure_smiles_string, reported_value) VALUES
  ('Cc1onc(-c2ccccc2)c1C(=O)N[C@@H]1C(=O)N2[C@@H]1SC(C)(C)[C@@H]2C(=O)O', 32),
  ('CN(C)[C@@H]1C(O)=C(C(N)=O)C(=O)[C@@]2(O)C(O)=C3C(=O)c4c(O)cccc4[C@@](C)(O)[C@H]3C[C@@H]12', 1),
  ('CC1(C)S[C@@H]2[C@H](NC(=O)Cc3ccccc3)C(=O)N2[C@H]1C(=O)O', 8);

In: Field request: Antibiotic MIC | item: "O=C(O)c1cn(C2CC2)c2cc(N3CCNCC3)c(F)cc2c1=O"
Out: 4

====

What Antibiotic MIC was measured for each of the following?
Test system: E. coli 14182
Assay details: Antibiotic MIC by microdilution with or without sub-MIC polymer
Assay type: cell-based, Escherichia coli
Condition set: +½ MIC C12K(NC8K)5NH2

Would you please look over these solved cases?
INSERT INTO assay_data (structure_smiles_string, experimental_readout, reported_value) VALUES
  ('Cc1onc(-c2ccccc2)c1C(=O)N[C@@H]1C(=O)N2[C@@H]1SC(C)(C)[C@@H]2C(=O)O', 'Antibiotic MIC', '>512 µg/mL'),
  ('CC1(C)S[C@@H]2[C@H](NC(=O)Cc3ccccc3)C(=O)N2[C@H]1C(=O)O', 'Antibiotic MIC', '>512 µg/mL'),
  ('CC[C@H]1OC(=O)[C@H](C)[C@@H](O[C@H]2C[C@@](C)(OC)[C@@H](O)[C@H](C)O2)[C@H](C)[C@@H](O[C@@H]2O[C@H](C)C[C@H](N(C)C)[C@H]2O)[C@](C)(O)C[C@@H](C)C(=O)[C@H](C)[C@@H](O)[C@]1(C)O', 'Antibiotic MIC', '8 to 16 µg/mL'),
  ('CN(C)[C@@H]1C(O)=C(C(N)=O)C(=O)[C@@]2(O)C(O)=C3C(=O)c4c(O)cccc4[C@@](C)(O)[C@H]3C[C@@H]12', 'Antibiotic MIC', '8 to 16 µg/mL');

Attention now turns to another entry.
In: Field request: Antibiotic MIC | item: "CCN1CCN(C(=O)N[C@@H](C(=O)N[C@@H]2C(=O)N3[C@@H]2SC(C)(C)[C@@H]3C(=O)O)c2ccccc2)C(=O)C1=O"
Out: 512 µg/mL

====

Test system: E. coli 16329
Assay type: cell-based, Escherichia coli
Condition set: E. coli U-16329; no polymer (None), Table 14
Experimental readout: Antibiotic MIC

Would you please look over these solved cases?
INSERT INTO results (structure_smiles_string, experimental_readout, reported_value) VALUES
  ('CCN1CCN(C(=O)N[C@@H](C(=O)N[C@@H]2C(=O)N3[C@@H]2SC(C)(C)[C@@H]3C(=O)O)c2ccccc2)C(=O)C1=O', 'Antibiotic MIC', '256 mg/L'),
  ('O=C(O)c1cn(C2CC2)c2cc(N3CCNCC3)c(F)cc2c1=O', 'Antibiotic MIC', '64 mg/L'),
  ('Cc1onc(-c2ccccc2)c1C(=O)N[C@@H]1C(=O)N2[C@@H]1SC(C)(C)[C@@H]2C(=O)O', 'Antibiotic MIC', '>512 mg/L');

In: Field request: Antibiotic MIC | item: "CC1(C)S[C@@H]2[C@H](NC(=O)Cc3ccccc3)C(=O)N2[C@H]1C(=O)O"
Out: 256 mg/L

====

What MIC, ¼ + MIC OAK was measured for each of the following?
Test system: MRSA 15903
Assay details: microbe, parasite or virus in culture
Assay type: cell-based, Staphylococcus aureus
Condition set: MRSA 15903; with C12K(KNC10K)3NH2 (SEQ ID NO: 10) at ¼ of its MIC
Give bare numbers, in µg/mL.

Would you please look over these solved cases?
INSERT INTO measurements (structure_smiles_string, target_system, unit, reported_value) VALUES
  ('O=C(O)c1cn(C2CC2)c2cc(N3CCNCC3)c(F)cc2c1=O', 'MRSA 15903', 'µg/mL', 128),
  ('CO/N=C(\C(=O)N[C@@H]1C(=O)N2C(C(=O)O)=C(COC(C)=O)CS[C@H]12)c1csc(N)n1', 'MRSA 15903', 'µg/mL', 32),
  ('CCN1CCN(C(=O)N[C@@H](C(=O)N[C@@H]2C(=O)N3C(C(=O)O)=C(CSc4nnnn4C)CS[C@H]23)c2ccc(O)cc2)C(=O)C1=O', 'MRSA 15903', 'µg/mL', 16),
  ('CC1(C)S[C@@H]2[C@H](NC(=O)Cc3ccccc3)C(=O)N2[C@H]1C(=O)O', 'MRSA 15903', 'µg/mL', 64),
  ('CN[C@H](CC(C)C)C(=O)N[C@H]1C(=O)N[C@@H](CC(N)=O)C(=O)N[C@H]2C(=O)N[C@H]3C(=O)N[C@H](C(=O)N[C@H](C(=O)O)c4cc(O)cc(O)c4-c4cc3ccc4O)[C@H](O)c3ccc(c(Cl)c3)Oc3cc2cc(c3O[C@@H]2O[C@H](CO)[C@@H](O)[C@H](O)[C@H]2O[C@H]2C[C@](C)(N)[C@H](O)[C@H](C)O2)Oc2ccc(cc2Cl)[C@H]1O', 'MRSA 15903', 'µg/mL', 1),
  ('Cc1nnc(SCC2=C(C(=O)O)N3C(=O)[C@@H](NC(=O)Cn4cnnn4)[C@H]3SC2)s1', 'MRSA 15903', 'µg/mL', 16);

In: Give MIC, ¼ + MIC OAK (MRSA 15903) of the following compound: "CN(C)[C@@H]1C(O)=C(C(N)=O)C(=O)[C@@]2(O)C(O)=C3C(=O)c4c(O)cccc4[C@@](C)(O)[C@H]3C[C@@H]12"
Out: 1

====

What Antibiotic MIC was measured for each of the following?
System: S. aureus 17314
Assay details: Antibiotic MIC by microdilution with or without sub-MIC polymer
Type: cell-based, Staphylococcus aureus
Condition set: S. aureus 17314; +½ MIC (3.12 μM) C12KKNC12KNH2
Numbers only, in µg/mL.

Would you please look over these solved cases?
INSERT INTO results (structure_smiles_string, experimental_readout, unit, reported_value) VALUES
  ('Cc1onc(-c2ccccc2)c1C(=O)N[C@@H]1C(=O)N2[C@@H]1SC(C)(C)[C@@H]2C(=O)O', 'Antibiotic MIC', 'µg/mL', 0.25),
  ('O=C(O)c1cn(C2CC2)c2cc(N3CCNCC3)c(F)cc2c1=O', 'Antibiotic MIC', 'µg/mL', 64);

Attention now turns to another entry.
In: Field request: Antibiotic MIC | item: "CC1(C)S[C@@H]2[C@H](NC(=O)Cc3ccccc3)C(=O)N2[C@H]1C(=O)O"
Out: 64

====

What Antibiotic MIC was measured for each of the following?
System: S. aureus 17314
Assay details: Antibiotic MIC by microdilution with or without sub-MIC polymer
Type: cell-based, Staphylococcus aureus
Condition set: S. aureus 17314; +⅓ MIC (2.1 μM) C12K(KNC12K)2NH2
One number for each entry, in µg/mL.

List the reported Antibiotic MIC of each molecule below.
1. CCN1CCN(C(=O)N[C@@H](C(=O)N[C@@H]2C(=O)N3[C@@H]2SC(C)(C)[C@@H]3C(=O)O)c2ccccc2)C(=O)C1=O [Piperacillin, piperacillin]
2. O=C(O)c1cn(C2CC2)c2cc(N3CCNCC3)c(F)cc2c1=O [Ciprofloxacin, ciprofloxacin]

Out:
128
64

List the reported Antibiotic MIC of each molecule below.
1. CN(C)[C@@H]1C(O)=C(C(N)=O)C(=O)[C@@]2(O)C(O)=C3C(=O)c4c(O)cccc4[C@@](C)(O)[C@H]3C[C@@H]12 [Tetracycline, tetracycline]
2. CC1(C)S[C@@H]2[C@H](NC(=O)Cc3ccccc3)C(=O)N2[C@H]1C(=O)O [Penicillin G, penicillin G]

Out:
[0.5, 128]
